Test system: rhythmic bladder contractions induced by substance P
Assay: Inhibitory effect on the rhythmic bladder contractions induced by substance P in anesthetized rats
Assay type: in vivo, rat
Conditions: time during which frequency of rhythmic contraction was completely inhibited, 0.25 mg/kg of the compound, substance P infusion
Experimental: Inhibitory effect on the rhythmic bladder contractions induced by substance P in anesthetized rats For the experiments, Sprague-Dawley female rats (9 to 12 weeks old) weighing between 200 to 300 g were used. After urethane anesthetization (subcutaneously administered with a dose of 1.2 g/kg), cannulae were placed in both right and left femoral veins. One intravenous catheter was used for administration of compounds, and the other was for the substance P (0.33 μg/kg/min) infusion. […]
reported_property: 100% inhibition time range

INSERT INTO measurements (structure_notation, reported_property, result) VALUES
  ('Cc1cc(-c2nc(CC(=O)O)c(-c3ccc(Cl)s3)o2)on1', '100% inhibition time range', 'B (A≧20>B≧10>C (minute))'),
  ('O=C(O)Cc1nc(-c2ccc(F)cc2)oc1-c1ccc(Cl)c(Cl)c1', '100% inhibition time range', 'C (A≧20>B≧10>C (minute))'),
  ('O=C(O)Cc1nc(-c2ccc3c(c2)CCCO3)oc1-c1ccsc1', '100% inhibition time range', 'C (A≧20>B≧10>C (minute))'),
  ('COc1ccc(-c2nc(CC(=O)O)c(-c3ccc(Cl)s3)s2)cc1', '100% inhibition time range', 'B (A≧20>B≧10>C (minute))'),
  ('CC(C)c1ncc(-c2nc(CC(=O)O)c(-c3ccsc3)o2)cn1', '100% inhibition time range', 'B (A≧20>B≧10>C (minute))');
